meta.source: PubChem BioAssay (NCI)

System: MDA-MB-468 breast
Experiment: NCI-60 one-dose screen, 48 h
Conditions: 10 µM unless noted
About 83,000 compounds went through this panel and 20% of them were active in at least one assay; those are over-represented in the sample as a whole. Activity calls are given as the source filed them. How the source made its calls: active means growth percent below 10; inactive means the rest.
// classify into active, inactive

Reference set (5 entries):
INSERT INTO results (compound, group_label) VALUES
  ('C[N+](C)(CCOC(c1ccccc1)c1ccccc1)CC(=O)OCc1ccccc1', 'inactive'),
  ('C/C(=C(/c1ccc(O)cc1)c1ccc(OCCN2CCCC2)cc1)c1ccccc1', 'inactive'),
  ('O=[N+]([O-])c1cc(Cl)c2[nH]c3c(Cl)cc([N+](=O)[O-])cc3c2c1', 'active'),
  ('CC12CC3CC1C(C(=O)O2)C3C(=O)O (stereo unspecified)', 'inactive'),
  ('CCOC(=O)Nc1nc2ccc(SCC(C)C)cc2s1', 'active');

Query :: Hi team, can someone confirm the assay call for CCCCCN1C=C/C(=C\C(=O)N(C)c2ccc(OC(F)(F)F)cc2)c2ccccc21 ?
Result :: inactive

---

Parameter: growth. Scope: all listed entries.
System: MDA-MB-468 breast
Assay: NCI-60 one-dose screen, 48 h (100 = growth as untreated, 0 = no growth, -100 = all killed)
Settings: 10 µM unless noted
The panel holds about 83,000 compounds, 20% with a hit somewhere; the sample as a whole holds those more often.
Write down the numeric answer in % and omit the unit.

Study these solved cases before continuing.
INSERT INTO measurements (molecule, unit_tag, measured) VALUES
  ('CN1C(=O)c2cc(Cl)nc3c(NC(=O)c4cccc(Cl)c4)c(Cl)c(NC(=O)c4cccc(Cl)c4)c1c23', '%', -19.6),
  ('CCN(CC)CC(O)CNc1c2ccc(Cl)cc2nc2ccc(OC)cc12 (centres undefined)', '%', -48.3),
  ('COc1ccc(-c2cc(/C=C/C(=O)c3cc(OC)c(OC)c(OC)c3)[nH]n2)cc1OC', '%', -63.8);

Query :: Give reported growth value for Clc1ccc(/C=N\N=c2\scc(-c3ccc(Cl)cc3)n2/N=C/c2ccc(Cl)cc2)cc1
Result :: 115

---

Test system: MDA-MB-468 breast
Assay: NCI-60 one-dose screen, 48 h (100 = growth as untreated, 0 = no growth, -100 = all killed)
Details: 10 µM unless noted
About 83,000 compounds went through this panel and 20% of them were active in at least one assay; those are over-represented in the sample as a whole.
Items are presented alongside their recorded growth.
# output: bare number, implied unit %

Please review the entries below; each comes with its answer.
INSERT INTO results (compound, measurement_kind, measured) VALUES
  ('COc1cc(CNc2ccccc2C(=O)N2CCN(C(=O)c3cc(-c4cc(OC)c(OC)c(OC)c4)n4nc(-c5ccccc5)cc4n3)CC2)cc(OC)c1OC', 'growth', 23.1),
  ('Cc1c(-n2nnc(-c3nc4ccccc4s3)c2N)c(=O)n(-c2ccccc2)n1C', 'growth', 110),
  ('C=CCOC(=O)C(=O)OCC=C', 'growth', 104),
  ('O=C1c2c(c(=O)[nH]c3ccccc23)CCN1Cc1ccccc1', 'growth', 101),
  ('O=[N+]([O-])c1cc(NS(=O)(=O)c2ccccc2)ccc1NS(=O)(=O)c1ccccc1', 'growth', 92.9),
  ('Cc1ccc(OC2=C(C#N)C(=N)N3C(=NN2)Sc2c(C)ccc(C)c23)cc1', 'growth', 110),
  ('COc1ccc(OC)c(/C=N/Nc2ncnc3c2c(C)nn3C)c1', 'growth', 106),
  ('CC1=NCC2NC(=O)NC(C)=C12 (stereo not given)', 'growth', 92.3),
  ('CCCC[N+]1(C)CCN=C1Cc1ccccc1 (stereo not given)', 'growth', 82.3),
  ('COc1cc(Nc2c(C#N)cnn3cc(-c4cnn(CC(C)(C)O)c4)cc23)ccc1Cl', 'growth', 65.1);

Query :: Please give measured growth of the following entry: COc1c(N2CC3CCCN(C(C)=O)C3C2)c(F)cc2c(=O)c(C(=O)N[C@H]3C(O)[C@@H](O)C(CO)O[C@H]3O)cn(C3CC3)c12 (stereo not given in full)
Result :: 98

Query :: Indicate the recorded growth value for this compound: N#CC1=C(N)Oc2c(ccc3ccccc23)C1c1ccccc1 (stereo not given)
Result :: 23.1

Query :: Quick one: give measured growth for O=C1CC2C=CCN2C=C1NC(=O)C1CCCCC1 (stereo not given)
Result :: 96.2

Query :: Item Cc1nccc2c3ccc(OCc4cn(-c5ccc(Cl)cc5)nn4)cc3n(CCCc3ccccc3)c12 : provide growth
Result :: 10.6

Query :: Supply recorded growth for c1ccc2c(c1)Sc1ccccc1S2 here.
Result :: 93.7

---

Test system: MDA-MB-468 breast
Assay: NCI-60 one-dose screen, 48 h (100 = growth as untreated, 0 = no growth, -100 = all killed)
Conditions: 10 µM unless noted
Compounds without any hit were thinned out: in the full panel of roughly 83,000, 20% have a hit. The source made the active and inactive calls. The calls were made as follows: active = growth percent below 10; inactive = the rest.
Some compounds, each annotated with its measured growth.

// known answers, use as guide
INSERT INTO measurements (compound, target_entity, measurement_kind, measured) VALUES
  ('Nc1nccc2c1ccn2-c1cccc(NC(=O)c2ccc(N3CCOCC3)c(C(F)(F)F)c2)c1', 'MDA-MB-468 breast', 'growth', '-14.2% (active)'),
  ('O=C(O)CCN1C(=O)/C(=C/C=C/c2ccc([N+](=O)[O-])o2)SC1=S', 'MDA-MB-468 breast', 'growth', '-77.8% (active)'),
  ('Cc1cc2nc3c4cccc(O)c4n(CCN(C)C)c3nc2cc1C', 'MDA-MB-468 breast', 'growth', '0.835% (active)'),
  ('CS(=O)(=O)Nc1cc(-c2ccc3ncc(C#N)c(NCc4ccccc4)c3c2)cnc1Cl', 'MDA-MB-468 breast', 'growth', '-53.9% (active)'),
  ('COC(=O)[C@@H](OC)[C@@H]1Cc2cc3cc(OC4CC(OC5CC(O)C(O)C(C)O5)C(O)C(C)O4)c(C)c(O)c3c(O)c2C(=O)[C@H]1OC1CC(OC2CC(OC3CC(C)(O)C(O)C(C)O3)C(O)C(C)O2)C(O)C(C)O1 (some centres not stated)', 'MDA-MB-468 breast', 'growth', '-45.6% (active)');

Query :: State its growth for this compound: CCN(CC)c1ccc(/C=C/c2ccc3cc(C)ccc3[n+]2CC)cc1
Result :: -24% (active)

Query :: Quickly give me recorded growth for CN(C)c1ccc(/C=N/N=C(\C#N)[S][Sn]([Cl])([c]2ccccc2)[c]2ccccc2)cc1
Result :: -76.8% (active)

---

Tested on: MDA-MB-468 breast
Experiment: NCI-60 one-dose screen, 48 h (100 = growth as untreated, 0 = no growth, -100 = all killed)
Details: 10 µM unless noted
This is part of a sample that, as a whole, favours compounds with a hit. Of some 83,000 tested, about 20% had one in any assay. The source made the active and inactive calls. Rule for the calls: active = growth percent below 10; inactive = the rest.
Measurement kind: growth

Answered cases to consult:
INSERT INTO results (compound, measured) VALUES
  ('O=C1C(=O)N(CCCCn2cc(CO)nn2)c2ccccc21', '98.6% (inactive)'),
  ('N#CC1C=CN(CC(N)=O)c2ccc3cccnc3c21 (stereo unspecified)', '96.2% (inactive)'),
  ('C=C(c1ccc(C(=O)NCCCn2ccnc2)cc1)c1cc2c(cc1C)C(C)(C)CCC2(C)C', '-5.41% (active)'),
  ('O=C(N/N=C/c1ccc(Cl)s1)c1[nH]c2ccc(Br)cc2c1-c1ccccc1', '2.96% (active)'),
  ('Cn1ncc2c(Nc3ccc(Br)cc3)nc(Nc3ccc(Br)cc3)nc21', '51.4% (inactive)'),
  ('CN1C(=O)/C(=C/c2nc(-c3cccc(F)c3)n3ccccc23)c2ccccc21', '101% (inactive)');

Query :: Jot down growth (MDA-MB-468 breast) of CCOC(=O)C1=CSC2=NC3=C(CCC/C3=C\c3cc(OC)c(OC)c(OC)c3)C(c3cc(OC)c(OC)c(OC)c3)N12 (stereo unspecified) .
Result :: 33.8% (inactive)

Query :: Check MDA-MB-468 breast data and give growth for C=C1C(=O)O[C@H]2[C@H]1CC/C(COC(=O)c1cc3cc(F)ccc3[nH]1)=C\CC[C@@]1(C)O[C@@H]21 .
Result :: -63.2% (active)

Query :: Please indicate recorded growth of COc1cc(Nc2ncnc(Nc3ccc4c(n3)NC(=O)C(C)(C)O4)n2)cc(OC)c1OC measured with MDA-MB-468 breast.
Result :: -24.5% (active)

Query :: // fetch growth; item: O=C(c1nc2ccccc2[nH]1)C1C(c2cccc([N+](=O)[O-])c2)C2CC3CCCCC3N2[C@@]12C(=O)Nc1cc(Cl)ccc12 (stereo partly specified) ; system: MDA-MB-468 breast
Result :: 1.53% (active)

Query :: Report growth from MDA-MB-468 breast testing of O=C1/C(=C/c2ccc(F)cc2)CN(Cc2cn(CCNc3ccnc4cc(Cl)ccc34)nn2)C/C1=C\c1ccc(F)cc1
Result :: -64.2% (active)
